Each recorded value in this set is attributed to PubChem BioAssay (NCI).

Reported growth inhibition by item:
assay: NCI Yeast Anticancer Drug Screen. Data for the rad50 strain (AID 155);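 also: 0% = growth of vehicle-only cultures of the same strain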; conditions: S. cerevisiae rad50 strain growth inhibition; at 50.0 µM; active compounds read high
This is part of a sample that, as a whole, favours compounds with a hit. Of some 79,000 tested, about 15% had one in any assay.
Unit % implied. Number only.

Example entries begin here.
COMPOUND | growth inhibition / %
CC1CNC2C(C)C3C(CC4C5CCC6CC(N=Cc7ccccc7O)CCC6(C)C5CCC43C)OC2(O)C1 (configuration not stated) | 25.8
COC(=O)c1c(C)cc(OC)c(C/C=C(\C)CCCc2coc(C=C(C)C)c2)c1OC | 21
CCOC(=O)c1c2c(nc3c1CCCC3)CCCC2 | 3.2

Data request: What does the data say about its growth inhibition? Entry: CC(C)OCN1COCN=C1NC#N
Data returned: 38.2

Data request: What does the data say about its growth inhibition? Entry: Cc1cc2nc3c(=O)[nH]c(=O)nc-3n(CCN(CCO)CCO)c2cc1Cl
Data returned: 58.9

Data request: What does the data say about its growth inhibition? Entry: Fc1cccc(-c2nnc(-c3cccc4ccccc34)o2)c1
Data returned: -8.65

Data request: What does the data say about its growth inhibition? Entry: c1ccc(CSC2(SCc3ccccc3)CCCC2)cc1
Data returned: -7.3

Data request: What does the data say about its growth inhibition? Entry: C=NNC(=O)c1ccncc1
Data returned: -10.4

Data request: What does the data say about its growth inhibition? Entry: O=C1c2ccccc2C(=O)c2c1cc1c(c2O)OCO1
Data returned: 23.4

Data request: What does the data say about its growth inhibition? Entry: Fc1cccc(C(Nc2nncs2)Nc2nncs2)c1
Data returned: 14.1

Data request: What does the data say about its growth inhibition? Entry: N=C(/C(=C/c1cccc2ccccc12)c1ccccc1)c1ccccc1
Data returned: 13.8

Data request: What does the data say about its growth inhibition? Entry: COC(=O)C(N)C(C)(C)S (configuration not stated)
Data returned: -9.9
